# Tested on: IL-1b
# ASSAY REMARKS: Mouse BMDM IL-1b Assay
# Format: cell-based
# MEASUREMENT SETUP: Macrophage; mouse bone marrow derived macrophages (C57BL6); 200 ng/mL LPS 3 h, compound 30 min, 5 mM ATP 45 min; IL-1b ELISA of supernatant
pIC50: −log10 of the molar value.
QUANTITY NAME: pIC50

Consider the following illustrative entries.
{"COMPOUND": "CN1CCc2oc(S(=O)(=O)NC(=O)Nc3c4c(cc5c3CCC5)CCC4)cc2C1=O", "TEST TARGET": "IL-1b", "pIC50": "6.00 to 7.00"}
{"COMPOUND": "O=C(Nc1c2c(cc3c1CCC3)CCC2)NS(=O)(=O)c1cc2c(s1)CCC/C2=N/O", "TEST TARGET": "IL-1b", "pIC50": "> 7.00"}
{"COMPOUND": "CC(C)c1c(F)c(Cl)c(F)c(C(C)C)c1NC(=O)NS(=O)(=O)c1cc2c(o1)CCCC2(C)O (stereo not shown)", "TEST TARGET": "IL-1b", "pIC50": "6.00 to 7.00"}

Please examine the following record next.
Request: Tell me its pIC50 on IL-1b: Cc1c(S(=O)(=O)NC(=O)Nc2c3c(cc4c2CCC4)CCC3)oc2c1C(O)CCC2 (stereo not shown)
Response: > 7.00

* * *

# System: IL-1b
# ASSAY REMARKS: Mouse BMDM IL-1b Assay
# Type: cell-based
# MEASUREMENT SETUP: Macrophage; mouse bone marrow derived macrophages (C57BL6); 200 ng/mL LPS 3 h, compound 30 min, 5 mM ATP 45 min; IL-1b ELISA of supernatant
pIC50: −log10 of the molar value.
Listed here are molecules together with their documented pIC50.

Below, each entry is followed by its recorded pIC50 result.
{"MOLECULE": "CC1(C)CC(=O)c2cc(S(=O)(=O)NC(=O)Nc3c4c(cc5c3CCC5)CCC4)oc2C1 [Compound 21]", "pIC50": "6.00 to 7.00"}
{"MOLECULE": "CO/N=C1/CCCc2oc(S(=O)(=O)NC(=O)Nc3c4c(cc5c3CCC5)CCC4)cc21 [Compound 41]", "pIC50": "6.00 to 7.00"}
{"MOLECULE": "Cc1c2c(c(NC(=O)NS(=O)(=O)c3cc4c(o3)CCCC4(C)O)c3c1CCC3)CCC2 (stereo not drawn) [Compound 51]", "pIC50": "> 7.00"}
{"MOLECULE": "O=C(Nc1c2c(c(Cl)c3c1CCC3)CCC2)NS(=O)(=O)c1cc2c(o1)CCC/C2=N/O [Compound 83]", "pIC50": "> 7.00"}
{"MOLECULE": "CC(C)c1cc(Cl)cc(C(C)C)c1NC(=O)NS(=O)(=O)c1cc2c(o1)CCCC2O (stereo not drawn) [Compound 61]", "pIC50": "6.00 to 7.00"}

Request: Give recorded pIC50. O=C(O)CCC1(O)CCCc2oc(S(=O)(=O)NC(=O)Nc3c4c(cc5c3CCC5)CCC4)cc21 (stereo not drawn) [Compound 126]
Response: 6.00 to 7.00

Request: Name the recorded pIC50 of the item CC(C)c1cccc(C(C)C)c1CC(=O)NS(=O)(=O)c1cc2c(o1)CCC(C)(C)C2(C)O (stereo not drawn) [Compound 75] in your answer.
Response: 5.00 to 6.00
